Just for reference, PubChem BioAssay AID2060489 is where these values come from.

System: 922993-354-T-J3-PDC complex spheroids, viability
Assay: Anticancer human tumor 922993-354-T-J3-PDC patient-derived endometrial carcinoma cell line growth inhibition [GQUAD]
Conditions: second compound 0.1 µM; first compound 10 µM; hits give low values
Quantity Name: viability, T/C (%)

INSERT INTO measurements (molecule, unit_info, recorded_number) VALUES
  ('COc1cc(C2c3cc4c(cc3C(OC3OC5COC(C)OC5C(O)C3O)C3COC(=O)C23)OCO4)cc(OC)c1O (centres undefined) + CN(C)c1ccc(Nc2c3ccc(NC(=O)CCN4CCCC4)cc3nc3cc(NC(=O)CCN4CCCC4)ccc23)cc1', '%', 46.3),
  ('CCCS(=O)(=O)Nc1ccc(F)c(C(=O)c2c[nH]c3ncc(-c4ccc(Cl)cc4)cc23)c1F + CN(C)c1ccc(Nc2c3ccc(NC(=O)CCN4CCCC4)cc3nc3cc(NC(=O)CCN4CCCC4)ccc23)cc1', '%', 46.9),
  ('O=C(NO)c1cnc(N2CCN(S(=O)(=O)c3ccc4ccccc4c3)CC2)nc1 + Cc1[nH]c2ccc(F)cc2c1-c1nc2c3cccnc3c3ncccc3c2[nH]1', '%', 0.48),
  ('COc1ncnc(C2CC2)c1-c1ncc2cnn(Cc3ccc(-c4nc(C(F)(F)F)cn4C(C)C)cc3)c2n1 + Cc1[nH]c2ccc(F)cc2c1-c1nc2c3cccnc3c3ncccc3c2[nH]1', '%', 93.2),
  ('CC(C)n1c(=O)n(C)c2cnc3cc(F)c(-c4ccc(OCCCN5CCCCC5)nc4)cc3c21 + Cc1cnc(CNC(=O)c2c(=O)c3ccc(N4CCCN(C)CC4)nc3n3c2sc2ccccc23)cn1', '%', 41.6),
  ('C=CC(=O)N1CCN(c2nc(=O)n(-c3c(C)ccnc3C(C)C)c3nc(-c4c(O)cccc4F)c(F)cc23)C(C)C1 (centres undefined) + CN(C)c1ccc(Nc2c3ccc(NC(=O)CCN4CCCC4)cc3nc3cc(NC(=O)CCN4CCCC4)ccc23)cc1', '%', 109),
  ('CC1COCCN1c1cc(-c2ccnn2C)c2ccnc(-c3ccn[nH]3)c2n1 (centres undefined) + Cc1cnc(CNC(=O)c2c(=O)c3ccc(N4CCCN(C)CC4)nc3n3c2sc2ccccc23)cn1', '%', 20.7),
  ('CC1COCCN1c1cc(-c2ccnn2C)c2ccnc(-c3ccn[nH]3)c2n1 (centres undefined) + Cc1[nH]c2ccc(F)cc2c1-c1nc2c3cccnc3c3ncccc3c2[nH]1', '%', 21.8),
  ('O=C(c1cc(Cc2n[nH]c(=O)c3ccccc23)ccc1F)N1CCN(C(=O)C2CC2)CC1 + Cc1[nH]c2ccc(F)cc2c1-c1nc2c3cccnc3c3ncccc3c2[nH]1', '%', 95.5),
  ('COc1ccc([C@@H](O)c2cc(-c3ncnc4cc(N5CCOCC5)ccc34)c(F)cc2Cl)nn1 + Cc1[nH]c2ccc(F)cc2c1-c1nc2c3cccnc3c3ncccc3c2[nH]1', '%', 58.1),
  ('CC(C)n1c(=O)n(C)c2cnc3cc(F)c(-c4ccc(OCCCN5CCCCC5)nc4)cc3c21 + Cc1[nH]c2ccc(F)cc2c1-c1nc2c3cccnc3c3ncccc3c2[nH]1', '%', 60.3),
  ('COc1cc(C2c3cc4c(cc3C(OC3OC5COC(C)OC5C(O)C3O)C3COC(=O)C23)OCO4)cc(OC)c1O (centres undefined) + Cc1[nH]c2ccc(F)cc2c1-c1nc2c3cccnc3c3ncccc3c2[nH]1', '%', 62.7),
  ('C=CCn1c(=O)c2cnc(Nc3ccc(N4CCN(C)CC4)cc3)nc2n1-c1cccc(C(C)(C)O)n1 + Cc1[nH]c2ccc(F)cc2c1-c1nc2c3cccnc3c3ncccc3c2[nH]1', '%', 16.4),
  ('CC(C)(O)C1CCC(Nc2ccc3ncc(-c4cccc(C(F)(F)F)c4)n3n2)CC1 (centres undefined) + Cc1cnc(CNC(=O)c2c(=O)c3ccc(N4CCCN(C)CC4)nc3n3c2sc2ccccc23)cn1', '%', 67.6);

* * *

System: 922993-354-T-J3-PDC complex spheroids, viability
Assay: Anticancer human tumor 922993-354-T-J3-PDC cell line growth inhibition [GQUAD]; active means viability on the fitted dose curve at most 10% of control; inactive means the rest;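 also: spheroids exposed to compounds for seven days; 100% = DMSO vehicle control viability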
Conditions: second compound 1 µM; first compound 10 µM
Labels: true (1) for active, false (0) for inactive

INSERT INTO measurements (compound, classification) VALUES
  ('CC(=O)O[C@H]1C(=O)[C@@]2(C)[C@H]([C@H](OC(=O)c3ccccc3)[C@]3(O)C[C@H](OC(=O)[C@H](O)[C@@H](NC(=O)c4ccccc4)c4ccccc4)C(C)=C1C3(C)C)[C@]1(OC(C)=O)CO[C@@H]1C[C@@H]2O + Cc1[nH]c2ccc(F)cc2c1-c1nc2c3cccnc3c3ncccc3c2[nH]1', 'false (0)'),
  ('O=C(NO)c1cnc(N2CCN(S(=O)(=O)c3ccc4ccccc4c3)CC2)nc1 + CN(C)c1ccc(Nc2c3ccc(NC(=O)CCN4CCCC4)cc3nc3cc(NC(=O)CCN4CCCC4)ccc23)cc1', 'true (1)'),
  ('O=C(c1cc(Cc2n[nH]c(=O)c3ccccc23)ccc1F)N1CCN(C(=O)C2CC2)CC1 + CN(C)c1ccc(Nc2c3ccc(NC(=O)CCN4CCCC4)cc3nc3cc(NC(=O)CCN4CCCC4)ccc23)cc1', 'false (0)'),
  ('COc1ccc([C@@H](O)c2cc(-c3ncnc4cc(N5CCOCC5)ccc34)c(F)cc2Cl)nn1 + Cc1[nH]c2ccc(F)cc2c1-c1nc2c3cccnc3c3ncccc3c2[nH]1', 'false (0)'),
  ('CC(C)(O)C1CCC(Nc2ccc3ncc(-c4cccc(C(F)(F)F)c4)n3n2)CC1 (stereo not given) + Cc1[nH]c2ccc(F)cc2c1-c1nc2c3cccnc3c3ncccc3c2[nH]1', 'false (0)'),
  ('O=c1[nH]cc(F)c(=O)[nH]1 + Cc1[nH]c2ccc(F)cc2c1-c1nc2c3cccnc3c3ncccc3c2[nH]1', 'false (0)'),
  ('Nc1ccn(C2OC(CO)C(O)C2(F)F)c(=O)n1 (stereo not given) + Cc1cnc(CNC(=O)c2c(=O)c3ccc(N4CCCN(C)CC4)nc3n3c2sc2ccccc23)cn1', 'false (0)'),
  ('CCCS(=O)(=O)Nc1ccc(F)c(C(=O)c2c[nH]c3ncc(-c4ccc(Cl)cc4)cc23)c1F + CN(C)c1ccc(Nc2c3ccc(NC(=O)CCN4CCCC4)cc3nc3cc(NC(=O)CCN4CCCC4)ccc23)cc1', 'false (0)'),
  ('CC1COCCN1c1cc(C2(S(C)(=N)=O)CC2)nc(-c2ccnc3[nH]ccc23)n1 (stereo not given) + Cc1[nH]c2ccc(F)cc2c1-c1nc2c3cccnc3c3ncccc3c2[nH]1', 'false (0)'),
  ('CC1COCCN1c1cc(C2(S(C)(=N)=O)CC2)nc(-c2ccnc3[nH]ccc23)n1 (stereo not given) + Cc1cnc(CNC(=O)c2c(=O)c3ccc(N4CCCN(C)CC4)nc3n3c2sc2ccccc23)cn1', 'false (0)');

* * *

The following compounds are listed with their measured viability, T/C values.
System: 922993-354-T-J3-PDC complex spheroids, viability
Experiment: Anticancer human tumor 922993-354-T-J3-PDC cell line growth inhibition [GQUAD];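 also: spheroids exposed to compounds for seven days; 100% = DMSO vehicle control viability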
Conditions: second compound 1 µM; first compound 0.316 µM; hits give low values
Quantity Name: viability, T/C (%)

INSERT INTO results (compound, recorded_number) VALUES
  ('CC(C)n1c(=O)n(C)c2cnc3cc(F)c(-c4ccc(OCCCN5CCCCC5)nc4)cc3c21 + CN(C)c1ccc(Nc2c3ccc(NC(=O)CCN4CCCC4)cc3nc3cc(NC(=O)CCN4CCCC4)ccc23)cc1', 92.2),
  ('O=c1[nH]cc(F)c(=O)[nH]1 + CN(C)c1ccc(Nc2c3ccc(NC(=O)CCN4CCCC4)cc3nc3cc(NC(=O)CCN4CCCC4)ccc23)cc1', 90.6),
  ('O=C(c1cc(Cc2n[nH]c(=O)c3ccccc23)ccc1F)N1CCN(C(=O)C2CC2)CC1 + CN(C)c1ccc(Nc2c3ccc(NC(=O)CCN4CCCC4)cc3nc3cc(NC(=O)CCN4CCCC4)ccc23)cc1', 87.8);

* * *

Tested on: 922993-354-T-J3-PDC complex spheroids, viability
Test: Anticancer human tumor 922993-354-T-J3-PDC cell line growth inhibition [GQUAD];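 also: spheroids exposed to compounds for seven days; 100% = DMSO vehicle control viability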
Details: second compound 0.1 µM; first compound 0.316 µM; hits give low values
The following compounds are listed with their measured viability, T/C values.
Quantity Name: viability, T/C (%)

INSERT INTO measurements (compound, quantity_name, unit_info, recorded_number) VALUES
  ('CC1COCCN1c1cc(C2(O)CC3CCC(C2)O3)c2cnn(-c3ccn[nH]3)c2n1 (centres undefined) + Cc1cnc(CNC(=O)c2c(=O)c3ccc(N4CCCN(C)CC4)nc3n3c2sc2ccccc23)cn1', 'viability, T/C', '%', 40.9),
  ('C=CCn1c(=O)c2cnc(Nc3ccc(N4CCN(C)CC4)cc3)nc2n1-c1cccc(C(C)(C)O)n1 + Cc1[nH]c2ccc(F)cc2c1-c1nc2c3cccnc3c3ncccc3c2[nH]1', 'viability, T/C', '%', 108),
  ('Cc1cccc(N(C)C(=O)C2C(O)CCN2c2nc(C)cc(C(F)(F)F)c2C#N)c1 (centres undefined) + Cc1[nH]c2ccc(F)cc2c1-c1nc2c3cccnc3c3ncccc3c2[nH]1', 'viability, T/C', '%', 97.7),
  ('CC(=O)O[C@H]1C(=O)[C@@]2(C)[C@H]([C@H](OC(=O)c3ccccc3)[C@]3(O)C[C@H](OC(=O)[C@H](O)[C@@H](NC(=O)c4ccccc4)c4ccccc4)C(C)=C1C3(C)C)[C@]1(OC(C)=O)CO[C@@H]1C[C@@H]2O + CN(C)c1ccc(Nc2c3ccc(NC(=O)CCN4CCCC4)cc3nc3cc(NC(=O)CCN4CCCC4)ccc23)cc1', 'viability, T/C', '%', 113);
